The following compounds are shown together with reported RP-LC retention time values.
assay-comment: gradient 5% acetonitrile 3 min, to 50% in 2 min, to 85% in 15 min, held 3 min, 100 µL/min
conditions: column: Zorbax Extend-C18 2.1 x 50 mm; eluents: water / acetonitrile, 0.1% formic acid

# compound, RP-LC retention time [s]
rows = [
    ("CCOC(=O)c1c(S(=O)(=O)N2CCC(C(=O)NCc3ccc(C)cc3)CC2)c(C)n(CC)c1C", 895),
    ("Cc1sc(-c2noc(C(C)C)n2)cc1S(=O)(=O)N1CCC(C(=O)Nc2cccc(C#N)c2)CC1", 1090),
    ("Cc1ccc(NC(=O)N2CCCC(C)(C(=O)NCc3ccccc3C)C2)cc1 (centres undefined)", 942),
    ("O=C(Nc1nc(-c2ccc(Br)cc2)cs1)c1cccc(-n2cnnc2)n1", 884),
    ("COc1ccc2c(C)cc(SCC(=O)Nc3c(C)cccc3C)nc2c1", 995),
    ("CCn1c(CCc2cccc(NS(=O)(=O)c3cnc[nH]3)c2)nc2ccccc21", 524),
    ("CCCOc1ccc(N2CCN(C(=O)c3cc(Cl)ccc3OC)CC2)nn1", 670),
    ("CCc1noc(NC(C)=O)c1-c1ccc(OC)c(S(=O)(=O)Nc2cccc(Cl)c2)c1", 831),
    ("CC(C)n1c(N2CCN(C(=O)c3ccc4nccnc4c3)CC2)cc(=O)n(C(C)C)c1=O", 701),
]

* * *

assay-comment: gradient 5% acetonitrile 3 min, to 50% in 2 min, to 85% in 15 min, held 3 min, 100 µL/min
conditions: column: Zorbax Extend-C18 2.1 x 50 mm; eluents: water / acetonitrile, 0.1% formic acid
measurement-kind: RP-LC retention time

# molecule, value-reported
measured = [
    ("CCOC(=O)c1nnn(C(CC)C(=O)Nc2ccc(OC)cc2)c1C(=O)OCC (stereo not given)", "814 s"),
    ("Cc1ccccc1S(=O)(=O)N1CCC(N2CCN(Cc3ccccc3)C(=O)C2=O)CC1", "826 s"),
    ("Cc1ccc(-c2ccc(=O)n(Cc3nc(-c4cccs4)no3)n2)cc1C", "1060 s"),
    ("Cc1ccccc1Oc1nccnc1N1CCCC(C(=O)NCc2ccc(Br)cc2)C1 (stereo not given)", "960 s"),
    ("O=C(C1CCCN(c2ncnc3c2nc2n3CCCCC2)C1)N1CCN(c2ccc(F)cc2)CC1 (stereo not given)", "829 s"),
    ("COc1ccc(-c2noc(CN3CCN(c4ccccn4)CC3)n2)cc1", "621 s"),
    ("COc1cc(NC(=O)NC(C(=O)N2CCc3ccccc32)C(C)C)cc(OC)c1 (stereo not given)", "982 s"),
    ("CCn1c(=O)c(C(=O)NCc2ccc(F)cc2)nc2cccnc21", "790 s"),
    ("O=c1ccn2c(n1)SC(c1ccccc1)C2 (stereo not given)", "655 s"),
    ("Cc1ccc(CNC(=O)CCNc2c(-c3cccc(F)c3)nc3cnccn23)o1", "700 s"),
    ("CCS(=O)(=O)c1ccccc1C(=O)Nc1sc(-c2ccccc2)cc1C(N)=O", "814 s"),
    ("O=C(NCCc1ccncc1)C1CCc2sc(C(=O)N3CCCC3)cc2C1 (stereo not given)", "506 s"),
    ("O=C(CCc1cc(Cl)no1)NCCc1noc(C2CC2)n1", "693 s"),
    ("CC1(C(=O)NCc2ccc(Cl)cc2)CN(S(C)(=O)=O)CC(=O)N1CCc1ccccc1 (stereo not given)", "906 s"),
    ("CC(C)Cn1cc(CCNS(=O)(=O)c2ccc(Br)s2)c2cccnc21", "995 s"),
    ("Cc1onc(-c2ccc(F)cc2F)c1C(=O)NC(C)C", "789 s"),
    ("CC1(C(=O)NC2CCCCCCC2)CN(S(C)(=O)=O)CC(=O)N1c1ccc(F)cc1 (stereo not given)", "884 s"),
    ("O=C(Cn1nc(C2CC2)cc1C(=O)N1CCCC1)Nc1ccc(F)cc1Cl", "813 s"),
    ("Cc1ccc2c(c1)C(=O)NC1(CCN(C(=O)Cc3ccccc3C)CC1)N2C", "820 s"),
    ("COc1ccc(-c2csc(Nc3ncccn3)n2)cc1OC", "824 s"),
    ("Cc1cccc(NC(=O)N2CCN(c3cc(C)nc(N4CCCC4)n3)CC2)c1", "680 s"),
    ("Cn1c(=O)n(CCN2CCCCC2)c(=O)c2c1nc1n2CCCN1C1CCCCC1", "681 s"),
    ("Cn1c(CC2CCN(C(=O)C3CC(=O)N(C4CCCCCC4)C3)C2)nc2cccnc21 (stereo not given)", "599 s"),
    ("CCN1CCN(c2nc(F)c3c(c2F)S(=O)(=O)CCN3CCOC)CC1", "581 s"),
    ("O=C(COc1ccccc1F)NC1CC(=O)N(C2CC2)C1 (stereo not given)", "611 s"),
    ("CCc1noc(-c2ccc(-n3cnc(C(=O)NC(C)c4ccc(F)cc4)c3)nc2)n1 (stereo not given)", "1000 s"),
    ("COc1ccc2nc(NC3=NCN(Cc4ccccc4)CN3)nc(C)c2c1", "746 s"),
    ("COCCCNC(=O)N1CCCN(C2=NS(=O)(=O)C(c3ccc(C)c(C)c3)=C2C)CC1", "739 s"),
    ("O=C(NCc1ccc(F)cc1F)c1cc2n(n1)CCCC2", "812 s"),
    ("CCN1CCN(C(=O)CN2C(=O)C3CCCCN3c3ccc(S(=O)(=O)N(C)C)cc32)CC1 (stereo not given)", "620 s"),
    ("Cn1nc(-c2nnc(-c3ccc(F)cc3)o2)c2c1CCN(C(=O)Nc1ccccc1)C2", "833 s"),
    ("O=C(CCNc1c(-c2cccc(F)c2)nc2cnccn12)N1CCCC1", "670 s"),
    ("c1ccc2c(c1)cnc1ccccc12", "710 s"),
    ("Cc1csc(-c2cc(S(=O)(=O)N3CCOCC3)cn2CC(=O)N2CCCC2)n1", "770 s"),
    ("CCN1C(=O)c2cccnc2Sc2cc(NC(=O)c3ccc(F)c(F)c3)ccc21", "874 s"),
    ("CCOC(=O)CC(=O)Nc1nnc(SCc2nnc(-c3ccccc3C)o2)s1", "817 s"),
    ("CCOC(=O)c1cccc(N2C=C(C#N)S(=O)(=O)c3c(F)cccc32)c1", "907 s"),
    ("COc1nccnc1N1CCC(NC(=O)CCc2c(C)noc2C)C1 (stereo not given)", "606 s"),
    ("O=C(CN1C(=O)CCCc2cc(S(=O)(=O)N3CCOCC3)ccc21)N1CCc2ccccc2C1", "786 s"),
    ("Cc1ccc(CNC(=O)C2=CCN(Cc3ccccc3)CC2)o1", "601 s"),
]

* * *

assay-comment: gradient 5% acetonitrile 3 min, to 50% in 2 min, to 85% in 15 min, held 3 min, 100 µL/min
conditions: column: Zorbax Extend-C18 2.1 x 50 mm; eluents: water / acetonitrile, 0.1% formic acid
measurement-kind: RP-LC retention time (s)

# compound, value-reported
rows = [
    ("CC1=NS(=O)(=O)N(C)C=C1C(=O)OCCc1ccccc1", 967),
    ("CCCC(=O)N1CCC2(CC1)C(=O)N(C)c1ccccc12", 764),
    ("Cc1[nH]c(C(=O)N2CCCC(C(=O)NCc3ccc4c(c3)OCO4)C2)c(C)c1C(=O)OC(C)C (stereo not given)", 842),
    ("O=C(Cc1csc2nc(-c3ccccc3)cn12)Nc1ccccc1", 785),
    ("CCOC(=O)c1c(C)[nH]c(CCC(=O)NCCc2c[nH]c3ccc(OC)cc23)c1C", 837),
    ("COc1cccc(C(=O)N2CCc3nc(CNC(=O)C4CCC4)n(C)c3C2)c1", 555),
    ("Cc1ccc2nc(CN3CCN(C(=O)Nc4ccc(F)cc4F)CC3)oc2c1", 706),
    ("CC(=O)c1cccc(NC(=O)c2nc3nc(C)cc(C(F)F)n3n2)c1", 734),
    ("CCc1ccc(NC(=O)N(CC)c2nc(-c3ccc(C4CCCCC4)cc3)cs2)cc1", 641),
    ("Cc1noc(C2(NC(=O)/C=C/c3cccnc3)CCCCC2)n1", 609),
    ("Cc1ccc(NC(=O)c2[nH]c3cc(C)sc3c2CN2CCOCC2)c(F)c1", 728),
    ("O=C1CC(c2nc3ccccc3n2CCN2CCOCC2)CN1Cc1ccccc1 (stereo not given)", 597),
    ("COc1ccc(-c2noc(C3CCCN3C(=O)Nc3ccc(C)cc3)n2)cc1 (stereo not given)", 830),
    ("O=C(c1c(OCC2CC2)cc(=O)n2c1CCCCC2)N1CCc2ccccc2C1", 837),
    ("CCCC(Nc1nc(C(=O)OCC)nc2ccccc12)c1cccs1 (stereo not given)", 933),
    ("O=C(NCC1CCCO1)C1CCCN(c2ccc(Sc3ccc(Br)cc3)nn2)C1 (stereo not given)", 793),
    ("CCC(=O)Nc1ccc2c(c1)N(C(=O)c1ccco1)CCC2", 725),
    ("O=S(=O)(c1cccn2c(SCc3cccc(F)c3)nnc12)N1CCc2ccccc2C1", 959),
    ("O=C(NCc1ccc(F)cc1)C1=C2CCCN2c2ccc(F)cc2S1(=O)=O", 864),
    ("O=C(Nc1nc(-c2ccccc2)c(-c2ccccc2)s1)C1=COCCO1", 1060),
]

Where do these numbers come from? They come from the METLIN SMRT retention time set (Domingo-Almenara et al. 2019).
